# System: Swiss CD-1 female mice
# test method notes: Nephrotoxicity study, histopathological scoring of kidney lesions
# Format: in vivo
# measurement conditions: Table 8; 12 mg/Kg every 2 hours × 6 sc, total 72 mg/Kg; 3 mice
measured parameter: Mice found dead

1) DAoc-Thr-Dab-cyclo(S-S)[Cys-Dab-DNIe-Leu-Dab-Dab-DCys] [compound 5] = none
2) DAoc-Thr-Dab-cyclo(S-S)[Cys-Dab-DAoc-Leu-Dab-Dab-DCys] [compound 4] = 3
3) Nonanoyl-Dab-Thr-Dab-cyclo(S-S)[Cys-Dab-DPhe-Leu-Dab-Dab-Cys] [compound 1] = none
